- Tested on: Mus musculus
- PROTOCOL NOTES: Neurotoxicity in Swiss albino mouse assessed as motor impairment at 300 mg/kg, ip after 4 hrs by rotorod test
- Type: toxicity, organism-based
- Set-up: dose 300 mg/kg, route intraperitoneal
- TEST SETTINGS: in vivo
MEASURE NAME: Activity

Example entries and their recorded answers appear below.
INSERT INTO measurements (molecule, measure_name, reported) VALUES
  ('Cc1nc2c(Br)cc(Br)cc2c(=O)n1-c1ccc(NC(=O)N/N=C/c2cccc([N+](=O)[O-])c2)cc1', 'Activity', 'Non-toxic'),
  ('Cc1nc2c(Br)cc(Br)cc2c(=O)n1-c1ccc(NC(=O)N/N=C/c2ccccc2)cc1', 'Activity', 'Non-toxic'),
  ('Cc1nc2c(Br)cc(Br)cc2c(=O)n1-c1ccc(NC(=O)N/N=C/c2ccc(O)cc2)cc1', 'Activity', 'Non-toxic'),
  ('CN(C)c1ccc(/C=N/NC(=O)Nc2ccc(-n3c(-c4ccccc4)nc4c(Br)cc(Br)cc4c3=O)cc2)cc1', 'Activity', 'Non-toxic'),
  ('COc1cc(/C=N/NC(=O)Nc2ccc(-n3c(C)nc4c(Br)cc(Br)cc4c3=O)cc2)ccc1O', 'Activity', 'Non-toxic');

Turning now to a further molecule:
Request: Item under review: CCC1(C)CC(=O)NC1=O (stereo unspecified) [ETHOSUXIMIDE] . Reported Activity?
Result: Non-toxic

----------
- Tested on: Rattus norvegicus
- PROTOCOL NOTES: Anticonvulsant activity in Wistar rat assessed as protection against maximal electroshock-induced seizures at 30 mg/kg, po after 2 hrs
- Format: functional
MEASURE NAME: Activity (%)
# output: bare number, implied unit %

Example entries and their recorded answers appear below.
INSERT INTO results (molecule, measure_name, reported) VALUES
  ('Cc1nc2c(Br)cc(Br)cc2c(=O)n1-c1ccc(NC(=O)N/N=C/c2ccc(N(C)C)cc2)cc1', 'Activity', 100),
  ('Cc1nc2c(Br)cc(Br)cc2c(=O)n1-c1ccc(NC(=O)N/N=C/c2ccc(O)cc2)cc1', 'Activity', 100),
  ('CN(C)c1ccc(/C=N/NC(=O)Nc2ccc(-n3c(-c4ccccc4)nc4c(Br)cc(Br)cc4c3=O)cc2)cc1', 'Activity', 0),
  ('O=C1NC(=O)C(c2ccccc2)(c2ccccc2)N1 [PHENYTOIN]', 'Activity', 75);

Request: Hi! What's the reported Activity for COc1cc(/C=N/NC(=O)Nc2ccc(-n3c(C)nc4c(Br)cc(Br)cc4c3=O)cc2)ccc1O on Rattus norvegicus?
Result: 0

Request: Again, but for O=C(N/N=C/c1ccc(O)cc1)Nc1ccc(-n2c(-c3ccccc3)nc3c(Br)cc(Br)cc3c2=O)cc1
Result: 25

----------
- PROTOCOL NOTES: Neurotoxicity in ip dosed Swiss albino mouse assessed as maximum tolerated dose after 0.5 hrs by rotorod test
- Type: toxicity, organism-based
- TEST SETTINGS: in vivo
This section presents compounds with their documented MTD at 0.5 h values.
# output: bare number, implied unit mg/kg

Example entries and their recorded answers appear below.
INSERT INTO assay_data (smiles_str, measurement_units, reported) VALUES
  ('O=C(N/N=C/c1ccccc1)Nc1ccc(-n2c(-c3ccccc3)nc3c(Br)cc(Br)cc3c2=O)cc1', 'mg/kg', 100),
  ('Cc1nc2c(Br)cc(Br)cc2c(=O)n1-c1ccc(NC(=O)N/N=C/c2cccc([N+](=O)[O-])c2)cc1', 'mg/kg', 300),
  ('COc1cc(/C=N/NC(=O)Nc2ccc(-n3c(-c4ccccc4)nc4c(Br)cc(Br)cc4c3=O)cc2)ccc1O', 'mg/kg', 100);

Turning now to a further compound:
Request: Item under review: Cc1nc2c(Br)cc(Br)cc2c(=O)n1-c1ccc(NC(=O)N/N=C/c2ccc(N(C)C)cc2)cc1 . Reported MTD at 0.5 h?
Result: 300
